Just for reference, patent US20240400689A1 is where these values come from.

# measured_target: T1, human CD276 protein (human, UniProt Q5ZPR3 29-534)
# T1 construct: whole, on cells; for SKOV3 and the other cancer lines the protein is the cells' own; also called B7-H3; B7H3
# T1 sequence (looked up): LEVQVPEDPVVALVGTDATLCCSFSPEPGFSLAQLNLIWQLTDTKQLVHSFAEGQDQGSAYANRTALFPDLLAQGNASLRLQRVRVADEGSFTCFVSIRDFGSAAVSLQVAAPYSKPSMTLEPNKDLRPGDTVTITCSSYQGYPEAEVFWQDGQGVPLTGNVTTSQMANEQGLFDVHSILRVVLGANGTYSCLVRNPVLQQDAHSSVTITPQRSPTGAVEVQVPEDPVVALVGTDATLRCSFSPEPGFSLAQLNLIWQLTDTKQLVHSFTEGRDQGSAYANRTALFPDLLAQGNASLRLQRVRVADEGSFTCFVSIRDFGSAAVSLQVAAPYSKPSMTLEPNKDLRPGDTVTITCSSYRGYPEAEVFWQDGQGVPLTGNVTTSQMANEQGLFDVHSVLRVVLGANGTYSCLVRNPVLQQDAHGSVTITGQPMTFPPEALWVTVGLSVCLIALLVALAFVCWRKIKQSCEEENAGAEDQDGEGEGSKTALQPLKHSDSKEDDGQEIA
# protocol: FACS titration on SKOV3 cells (MFI against Conc. (nM)); unit taken from the concentration axis
quantity_measured: pEC50
On this scale, pEC50 is minus log10 of a concentration expressed in M (mol/L).

hVH4-hVL5-30 (antibody, V domains shown) VH: QVQLQESGPGLVKPSQTLSLTCAVYGYSITSDYAWNWIRQPPGKGLEWIGYISHSGSTSYNPSLKSRVTISRDTSKNQFSLKLSSVTAADTAVYYCARSLGRRWYFDVWGQGTTVTVSS VL: DIVMTQSPLSLPVTPGEPASISCKSSQSLLNSSTQKNYLAWYLQKPGQSPQLLIYFASTRDSGVPDRFSGSGSGTDFTLKISRVEAEDLGVYFCQQHYIIPFTFGQGTKLEIK	8.07

Now consider the entry below.
Look up pEC50 for this binder: 30-C7-C11-D4 (human IgG1 chimeric antibody) (antibody, V domains shown, human IgG1 chimeric antibody of the mouse clone) VH: EVQLVESGPGLVKPSQSLSLTCTVTGYSITSDYAWNWIRQFPGNKLEWMGYISHSGSTSYNPSLKSRISITRDTSKNQFFLQLNSVTTEDTATYYCARSLGRRWYFDVWGAGTTVTVSS VL: DIVMTQSPSSLAMSVGQKVTLSCKSSQSLLNSSTQKNYLAWYQQKPGQSPKLLVYFASTRDSGVPDRFIGSGSGTEFTLTISSVQAEDLADYFCQQHYIIPFTFGAGTKLEIK
8.10
